system: F1*sub RNA substrate (template-directed ligation); test: fraction ligated after 30 min (ligated reads / total reads); higher = more ligase activity; sequences stand for … in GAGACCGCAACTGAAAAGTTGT…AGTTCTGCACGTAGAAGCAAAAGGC; conditions: 42 °C
I'd appreciate it if you could supply fraction ligated values for the items below.
Answers are plain numbers.

// solved cases for fraction ligated follow
TATCACTTGCGTAGACCTTTGGATGGGTTGA [3d1630] :: 0.817
TATCACTTTCGAAACACTTTGGATGGGTTGA [3d1494] :: 0.795
ATCACTTGTCGTAGACCTTTGGATGGGTTGA [3d202] :: 0.767
TATCACTTGTCGTAGACACTTTGGAGGGTTA [3d2053] :: 0.0985
TATCACTGTCGTAAGACACTTTGGAGGTTGA [3d1457] :: 0.0147
TATACTGTGTAAGACACTTTGGATGGGTTGA [3d780] :: 0.8

List fraction ligated for every entry below, keeping the order given.
1. TTCACTTGTCGTAAGACACTTTGGATGGGTTG [2d46]
2. TTCATTGTCTAAGACACTTTGGATGGGTTGA [3d321]
3. TATACTTGTCGTAAGACACTTTGATGGGTTGA [2d84]
4. TATCACTTGTCGTAAGAATTTGGATGGGTTG [3d2158]
5. TATCACTTGTCGTAAGCACTTTGGAGGTTGA [3d2145]

# output
0.792
0.203
0.794
0.798
0.143
